- protocol.details: amyloid nucleation score (Sup35N fusion, yeast selection) (log enrichment); library NNK1; higher = more nucleation; inactive = no reads after selection;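 further: zero at mode of non-aggregating sequences after 7 days selection at 30°C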
recorded.metric: amyloid nucleation score

INSERT INTO results (substance, recorded_metric, reported_value) VALUES
  ('SFKWVVRVWRCRILWNSGVS', 'amyloid nucleation score', 0.001),
  ('RLSGGLADHNIFNFRIT', 'amyloid nucleation score', 0.805),
  ('FYRFLQPMS', 'amyloid nucleation score', -0.809),
  ('SNVVNGLDTYSQPGKGWCVR', 'amyloid nucleation score', 0.581),
  ('FHGDLA', 'amyloid nucleation score', -0.57);

Prompt: Report amyloid nucleation score for YRYSSIF
Completion: -0.954

Prompt: Provide amyloid nucleation score value for the following substance: VFLMYRLMH
Completion: inactive

Prompt: Write down amyloid nucleation score measured for item IIWMSRRSSSLNEKGLKFNY
Completion: -0.548

Prompt: # return recorded amyloid nucleation score for input LRARVGGVEFVYSVQRRLKP
Completion: -0.167

Prompt: Name the recorded amyloid nucleation score of the substance listed here: PLKHVRQDWCTKLICNSGNY
Completion: -0.357
